# peptide exchange yield per record follows
target: T1, HLA-A*02:01 (peptide-receptive MHC class I molecule after UV-ligand exchange) (human); assay: UV-ligand exchange, anti-b2m ELISA; peptide exchange yield grade (>10% = +; >20% = ++; >50 = +++; >75% = ++++)
T1 construct: monomers captured on streptavidin-coated plates; also called peptide-receptive MHC molecules; MHC monomers
No end group written: not given here.

Recorded peptide exchange yield, per entry:
SVIDSLPEI [peptide SVIDSLPEI (SEQ ID NO: 15)] = > 75%
TAYPQVVVV [peptide TAYPQVVVV (SEQ ID NO: 19)] = 20 to 50%
FLLEAQNYL [peptide FLLEAQNYL (SEQ ID NO: 4)] = > 75%
FASEVSNVL [peptide FASEVSNVL (SEQ ID NO: 29)] = > 75%
VLYDNTQLQL [peptide VLYDNTQLQL (SEQ ID NO: 17)] = > 75%

State, in one line, measured peptide exchange yield of YAAEIASAL (also: trifluoroacetate salt) [peptide YAAEIASAL (SEQ ID NO: 1)]
50 to 75%

State, in one line, measured peptide exchange yield of GLIDEVMVLL [peptide GLIDEVMVLL (SEQ ID NO: 5)]
> 75%

State, in one line, measured peptide exchange yield of YASGSSASL [peptide YASGSSASL (SEQ ID NO: 28)]
10 to 20%

State, in one line, measured peptide exchange yield of SAFPFPVTVSL [peptide SAFPFPVTVSL (SEQ ID NO: 10)]
20 to 50%

State, in one line, measured peptide exchange yield of LSASLVRIL [peptide LSASLVRIL (SEQ ID NO: 8)]
10 to 20%

State, in one line, measured peptide exchange yield of IAIPFLIKL [peptide IAIPFLIKL (SEQ ID NO: 31)]
> 75%

State, in one line, measured peptide exchange yield of AAYPEIVAV [peptide AAYPEIVAV (SEQ ID NO: 2)]
50 to 75%

State, in one line, measured peptide exchange yield of SLLSELLGV [peptide SLLSELLGV (SEQ ID NO: 23)]
> 75%

State, in one line, measured peptide exchange yield of RLAKLTAAV [peptide RLAKLTAAV (SEQ ID NO: 9)]
> 75%
